# protocol.text: reversal of MRP1-mediated doxorubicin resistance, pilot screen, H69AR cells, doxorubicin co-treatment (AID 601)
# test.conditions: H69AR cells + 2 uM doxorubicin, CellTiter-Glo, 72 h; at 10 µM; stronger effect = higher value
Listing of entries alongside the reported differential viability (reversal).
Just the number in %, nothing appended.

differential viability (reversal) measured on O=C(COC(=O)c1ccc(S(=O)(=O)Nc2ccccc2)cc1)NCCN1C(=O)CSC1=O = 9.27

Form: molecule = Cc1cc(NC(=O)c2cnn3cccnc23)no1 ; differential viability (reversal) = 4.21

S=C(c1ccc(-c2cc(Cl)ccc2Cl)o1)N1CCOCC1 yielded differential viability (reversal) of -8.1

Please fill in: differential viability (reversal) reported for Cc1ccc(NC(=O)CSc2nnc(CNC(=O)c3c(F)cccc3Cl)o2)cc1 = -0.775

====

# protocol.text: 384-well plate pilot, post-Golgi transport modulator project, inhibition of yeast transport mutant growth (AID 636)
# test.conditions: absorbance 615 nm, about 18 h, stronger effect = higher value
property.name: inhibition (%)
Please give a number only; it is taken to be in %.

# inhibition of CCOC(=O)C1CCCN(CCCc2ccccc2)C1 (stereo unspecified) = -5.47

// inhibition lookup, compound = CCC(NS(=O)(=O)c1ccc(C)cc1)C(=O)N1CCC2(O)CCCCC2C1 (stereo unspecified) , result: -3.2

The compound CCOC(=O)c1ccc(COC(=O)CCc2nc3ccccc3[nH]c2=O)o1 showed inhibition equal to -1.32

Measured inhibition, O=C(CSc1nnnn1-c1ccccc1)c1cc2ccccc2oc1=O : -6.62

response.value for COc1ccc(N2CCN(c3ccc(NC(=O)C4CCCCC4)cc3C#N)CC2)cc1 (field: inhibition) = -1.76

inhibition reported for this compound COC(=O)c1ccccc1NC(=O)C1CC(=O)N(c2ccccc2)C1 (stereo unspecified) : -6.27

Memo: CCC(=O)Nc1ccc(F)c(Cl)c1 , reported inhibition: -6.53

inhibition for Cc1nnc(NC(=O)c2ccccc2F)s1 is -3.24

Sure, the documented inhibition for Nn1c(CSc2nc3ccccc3o2)nnc1CSc1nc2ccccc2o1 is -4.4

GET /value?item= CC(=O)N(C(C)=O)c1cccc2c(N(C(C)=O)C(C)=O)cccc12 &field=inhibition returns -4.29

Looking up CCn1c(Cc2ccc(OC)cc2)nnc1SCC(=O)Nc1cccc(C(=O)OC)c1 , I see its inhibition listed as -1.45

====

# protocol.text: reversal of MRP1-mediated doxorubicin resistance, pilot screen, H69AR cells, doxorubicin co-treatment (AID 601)
# test.conditions: H69AR cells + 2 uM doxorubicin, CellTiter-Glo, 72 h; measured here: viability with 2 uM doxorubicin; at 10 µM; stronger effect = lower value
Lab note: cut-off is 90%. Strictly less in viability is yes (1). Exactly 90% or more is no (0).

>  <compound>
CS(=O)(=O)NCc1ccc(C(=O)NCc2ccccc2)cc1

>  <group>
no (0)

$$$$

Given the entry CS(=O)(=O)c1ccc2nc(NC(=O)CCC(=O)c3cccs3)sc2c1 , would its reported viability be below 90%? yes (1)

Is viability strictly under 90% for the entry NC(=O)C1(N2CCCCC2)CCN(Cc2ccccc2Cl)CC1 ? yes (1)

Consider COc1cc(-c2nnc(SCC(=O)c3cc(C)n(CC4CCCO4)c3C)o2)cc(OC)c1OC (configuration not stated) . Does its viability lie strictly below 90%? yes (1)

viability strictly < 90% for this compound? O=C(Nc1ccc(F)cc1F)NC1CC(=O)N(Cc2ccccc2)C1 (configuration not stated) no (0)
